target: Recombinant human MASP2 enzyme (fragment corresponding to amino acids 297-686, C-terminal His Tag) (human, UniProt O00187 297-686); experiment: cell-based or functional assay
Sequence (O00187 other isoform, or with tags, fused parts or gaps limits assumed): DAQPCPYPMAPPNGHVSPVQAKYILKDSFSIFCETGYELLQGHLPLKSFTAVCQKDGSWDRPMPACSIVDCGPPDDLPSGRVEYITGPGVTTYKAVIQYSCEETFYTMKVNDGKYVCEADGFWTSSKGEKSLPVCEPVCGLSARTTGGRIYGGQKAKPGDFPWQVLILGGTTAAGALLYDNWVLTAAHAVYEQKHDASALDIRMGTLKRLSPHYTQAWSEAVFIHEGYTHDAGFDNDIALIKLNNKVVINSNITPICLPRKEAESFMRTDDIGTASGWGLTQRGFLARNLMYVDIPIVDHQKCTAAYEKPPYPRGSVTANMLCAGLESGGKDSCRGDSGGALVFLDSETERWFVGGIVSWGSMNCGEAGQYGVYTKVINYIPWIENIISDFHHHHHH
Numbered stars: 1 amine (or outer) side, 2 acyl side, 3 side chain; on linkers, the order of the positions; unused ones are H or OH. Bridge positions count the residues as written; N and C are the ends. Square brackets hold non-standard residues; d marks the D form. Ends that are not written are not given here. Freidinger's Lactam = (2S)-2-[(3R)-3-amino-2-oxopyrrolidin-1-yl]-4-methylpentanoic acid (Freidinger's lactam), CC(C)C[C@@H](C(=O)[*:2])N1CC[C@@H](N[*:1])C1=O; Oic = O=C(O)[C@@H]1C[C@@H]2CCCC[C@@H]2N1; Pen = CC(C)(S)[C@H](N)C(=O)O; Sar = CNCC(=O)O
measuredAttribute: human MASP2 IC50 (nM)
Express your answer in nM, writing the number without its unit.

Fill in: human MASP2 IC50 of [Sar]ICSRSLP[Oic]I[Pen]IP[Freidinger's Lactam]-OH (disulfide 3-11; N-terminus assumed; SMILES CC[C@H](C)[C@H](NC(=O)CNC)C(=O)N[C@H]1CSSC(C)(C)[C@@H](C(=O)N[C@H](C(=O)N2CCC[C@H]2C(=O)N[C@@H]2CCN([C@@H](CC(C)C)C(=O)O)C2=O)[C@@H](C)CC)NC(=O)[C@H]([C@@H](C)CC)NC(=O)[C@@H]2C[C@@H]3CCCC[C@@H]3N2C(=O)[C@@H]2CCCN2C(=O)[C@H](CC(C)C)NC(=O)[C@H](CO)NC(=O)[C@H](CCCNC(=N)N)NC(=O)[C@H](CO)NC1=O) [((N-Me)G)-IC+SRSLP-(Oic)-I-(Pen)+IP-(Freidinger's Lactam)-OH] is ___
96
